Entries and their TGI
- System: NCI/ADR-RES ovarian
- Test protocol: NCI tumour cell line growth inhibition, 48 h

// solved cases for TGI follow
{"Compound": "Cc1cc2c(cc1C)[n+](=O)c(C(=O)C(C)(C)C)c(C(F)(F)F)n2[O-]", "Tested system": "NCI/ADR-RES ovarian", "TGI": "27.5 µM"}
{"Compound": "O=C(O)c1ccc(Cc2ccccc2C(=O)O)cc1", "Tested system": "NCI/ADR-RES ovarian", "TGI": "> 100 µM"}
{"Compound": "S=c1ncc2n[nH]nc2[nH]1", "Tested system": "NCI/ADR-RES ovarian", "TGI": "> 100 µM"}
{"Compound": "C=C(C)c1ccccc1 (tested in a mixture with another compound)", "Tested system": "NCI/ADR-RES ovarian", "TGI": "> 100 µM"}
{"Compound": "Cc1ccc(S(=O)(=O)NNC(=O)Nc2ccc(Cl)cc2)cc1", "Tested system": "NCI/ADR-RES ovarian", "TGI": "> 100 µM"}

Ask: Entry under review: `COc1ccc(C(=O)/C=C/c2c(OC)cc(OC)cc2OC)c(OC)c1` . Reported TGI?
Reply: > 100 µM

Ask: Using the record for `O=C1Nc2ccc(Cl)cc2C(=O)N2CCC[C@@H]12` , report its TGI.
Reply: > 100 µM

Ask: Reported TGI for `COc1cc(C(=O)N2CCN(c3ccccn3)CC2)c(N)cc1OCc1ccccc1` : what is it?
Reply: > 100 µM

Ask: Find the recorded TGI belonging to `COc1cc2c3c(n(CCCn4ccnc4)c(=O)c2cc1OC)-c1cc2c(cc1C3=O)OCO2` and report it.
Reply: 3.59 µM

Ask: Record request: TGI value, item `O=c1cnnc2sc(=S)[nH]n12`
Reply: > 100 µM

Ask: Consider the compound shown here: `CCn1c2ccccc2c2nnc(NCCCO)nc21` What is its recorded TGI?
Reply: > 100 µM

Ask: What measured TGI goes with `O=[N+]([O-])C(=C1NCCN1)C(Cl)=C(Cl)Cl` ?
Reply: > 100 µM

Ask: Returns the measured TGI for the input compound. Input: CN(C)c1ccc(C2SCC(=O)N2c2nc3cc4sc(N5C(=O)CSC5c5ccc(N(C)C)cc5)nc4cc3s2)cc1 (centres undefined)
Reply: > 76.3 µM

Ask: Using the record for `COc1ccc(-c2cc(=O)c3cc(C)cnc3[nH]2)cc1` , report its TGI.
Reply: 23.5 µM

----------
- Tested on: 786-0 renal
- Test protocol: NCI tumour cell line growth inhibition, 48 h
Result type: TGI

Ask: Which value of TGI has been reported for `Nc1nc[n+](Cc2ccccc2)c2ncn(Cc3ccccc3)c12` in the records?
Reply: > 100 µM

Ask: Give its TGI value. Item: `O=C1Nc2ccccc2/C1=C/C(=O)c1ccc(N2CCCC2)cc1`
Reply: > 100 µM

Ask: Look up TGI: `CCO.CCO.Oc1ccc(Nc2ncns2)cc1.Oc1ccc(Nc2ncns2)cc1.[Ti]`
Reply: > 100 µM

----------
- Test system: UACC-62 melanoma
- Test protocol: NCI tumour cell line growth inhibition, 48 h
Result type: log10 TGI (log10 of the value in µM)
Note the log scale: values are log10 of TGI expressed in µM.

Below: 5 molecules and their reported log10 TGI.
{"Molecule": "Cn1nc(-c2ccccc2)c(C(=O)/C=C/c2ccc(F)cc2)c(N2CCCC2)c1=O", "log10 TGI": 1.58}
{"Molecule": "Clc1ccc(C2=Nc3ccccc3SC(c3cccs3)C2)cc1 (stereo not drawn)", "log10 TGI": 1.46}
{"Molecule": "O=C(/C=C/c1ccccc1F)c1ccc([N+](=O)[O-])cc1", "log10 TGI": 1.91}
{"Molecule": "N#CC12CC3=C(N=C1NC1=C(CCc4ccccc41)C2)c1ccccc1CC3 (stereo not drawn)", "log10 TGI": 1.63}
{"Molecule": "CCCCCNC(=O)c1cc2cc(CCl)ccc2oc1=O", "log10 TGI": 0.85}

Could you now consider this next molecule?
Ask: Param item = OC1c2c(ccc3c2CCC3)CC12Cc1ccccc1C2 (stereo not drawn) ; retrieve measured log10 TGI.
Reply: 1.47

----------
- System: SF-295 CNS
- Test protocol: NCI tumour cell line growth inhibition, 48 h
Result type: TGI (µM)
Value expressed in µM; do not type the unit.

In the examples that follow, each entry is paired with its recorded TGI.
{"Molecule": "O=C1c2ccccc2C(=O)c2c(Nc3ccc(CCO)cc3)ccc(O)c21", "Numeric value": 47.4}
{"Molecule": "Cc1[nH]c(-c2ccccc2)c(O)c1C(=O)OC12CC3CC(CC(C3)C1)C2", "Numeric value": 14.1}
{"Molecule": "Cc1ccccc1NC(=O)c1cc2cc(N=Nc3ccccc3C(=O)O)ccc2oc1=O", "Numeric value": 39.2}
{"Molecule": "COc1ccc2nc3cc(Cl)ccc3c(Nc3ccc(O)c(CN4CCN(C)CC4)c3)c2c1", "Numeric value": 3.81}

Ask: Suppose we examine the molecule `Cc1ccc(/C=C2\COc3ccc(O)c(O)c3C2=O)cc1` ; what TGI value has been reported?
Reply: 9.64

Ask: Given N#CC12CC3=C(N=C1NC1=C(CCc4ccccc41)C2)c1ccccc1CC3 (stereo not given) , state its recorded TGI.
Reply: 12

Ask: For the molecule shown here, CC12OC(CC(O)C1O)n1c3ccccc3c3c4c(c5c6ccccc6n2c5c31)C(=O)N(CCN1CCCC1)C4=O (stereo not given) , give the reported TGI.
Reply: 5.96

----------
Recorded below: GI50, system SF-539 CNS.

Illustrative cases are given below, each with its answer.
{"Compound": "CC(C)Cc1ccc(C(C)C(=O)NCc2ccc(Cn3c(=O)sn(CCCCl)c3=O)cc2)cc1 (centres undefined)", "Tested system": "SF-539 CNS", "GI50": "1.48 µM"}
{"Compound": "CCCCCCCCCCCC[C@@H](O)[C@H]1CC[C@H]([C@H](O)CCCC[C@H](O)CCCCC[C@@H](O)CC2=C[C@H](C)OC2=O)O1", "Tested system": "SF-539 CNS", "GI50": "4.18 µM"}
{"Compound": "O=C(CI)OCC(COC(=O)CI)OC(=O)CI", "Tested system": "SF-539 CNS", "GI50": "13.7 µM"}

Ask: Any idea what GI50 came out for `O=C1Nc2ccccc2/C1=C/C(=O)c1ccc(N2CCCC2)cc1` on SF-539 CNS?
Reply: 2.11 µM

----------
TGI by entry:
- Tested on: A549 NSCLC
- Test protocol: NCI tumour cell line growth inhibition, 48 h

Ask: Record request: TGI value, item CCCCCCCC/C=C(\Br)C(O)C(Br)Br (configuration not stated)
Reply: > 100 µM

Ask: // lookup TGI for CCSC(=O)N1c2ccc(OC)cc2C=CC1C#N (configuration not stated)
Reply: > 1000 µM

Ask: Bench note: what TGI did C=C(C)c1ccccc1 (tested in a mixture with another compound) show?
Reply: > 100 µM

Ask: Entry `O=c1cnnc2sc(=S)[nH]n12` has what TGI?
Reply: > 100 µM

Ask: Recorded TGI of `O=C(c1ccccc1)c1c(C(F)(F)F)n([O-])c2ccc(F)cc2[n+]1=O` , please.
Reply: 2.97 µM

Ask: Request the reported TGI associated with `COc1ccc(C(=O)/C=C/c2c(OC)cc(OC)cc2OC)c(OC)c1`
Reply: > 100 µM

Ask: What TGI value was documented for this molecule, Nc1cc(C(=O)NC2C3CC4CC(C3)CC2C4)[nH]c(=S)n1 (configuration not stated) ?
Reply: > 100 µM

Ask: What measured TGI goes with `CS(=O)(=O)c1ccc(Oc2cc(F)cc(C#N)c2)c2c1[C@H](O)[C@H](F)[C@H]2F` ?
Reply: > 100 µM

Ask: What value of measured TGI is listed for `CN[C@H](C)[C@@H](OC)c1ccccc1` ?
Reply: > 100 µM

Ask: Reported TGI, molecule `Cc1ccc(C(=Nc2ccccc2)N=P(c2ccccc2)(c2ccccc2)c2ccccc2)cc1` : ____
Reply: 15 µM

Ask: Consider the molecule shown here: `c1ccc2nc3c(cc2c1)Sc1cc2ccccc2[n+]2c1N3CC2` What is its recorded TGI?
Reply: > 100 µM

Ask: If you can, please state the reported TGI value of Cc1cccc2c1CC1(Cc3ccccc3C1=O)C2=O (configuration not stated) .
Reply: > 100 µM

----------
- Tested on: A498 renal
- Test protocol: NCI tumour cell line growth inhibition, 48 h
Result type: TGI

Here's what some known entries look like.
{"Compound": "C[O+]=c1cccc2ssnc1-2", "TGI": "> 100 µM"}
{"Compound": "O=C(Nc1ccc(F)cc1)C(=O)C(C(=O)c1ccccc1F)C1OC(=O)c2ccccc21 (centres undefined)", "TGI": "> 100 µM"}
{"Compound": "N#CCC(=O)N/N=C(\\CCN1CCCC1)CC(c1ccccc1)c1c(O)c2ccccc2oc1=O (centres undefined)", "TGI": "> 85.5 µM"}

With those in mind, consider the next compound.
Ask: Under A498 renal: TGI value of C=C1C(=O)OC2C1C(=O)C/C(C)=C/CCC1(C)OC21 (centres undefined) ?
Reply: 49.6 µM
